# System: HEK-293T
# assay_procedure: Multiplex assay against HEK293T
# Assay type: toxicity, cell-based
# cond: human, 12 h, 1 µM, compound concentration 1 uM, replicate 2
parameter: Population Mitochondria Different-Phenotype (%)
Your answer is read as %, so omit the unit and give the number.

get_value(item= Cc1cc(C)c(S(=O)(=O)N(Cc2ccc(-c3cccc(S(C)(=O)=O)c3)cc2)Cc2ccc(C(F)(F)F)o2)c(C)c1 , readout=Population Mitochondria Different-Phenotype (%)) returns 13

New cases:
get_value(item= CCOC(=O)c1c(C)[nH]c2ccc3c(c12)CN1CCc2cc(OC)ccc2C1O3 (centres undefined) , readout=Population Mitochondria Different-Phenotype (%)) returns 88

get_value(item= O=C(Nc1ccc(-c2ccnc(Nc3ccc(N4CCOCC4)cc3)n2)cc1)[C@@H]1CCCN1 , readout=Population Mitochondria Different-Phenotype (%)) returns 19

get_value(item= CCOc1cc2ncc(C#N)c(Nc3ccc(OCc4ccccn4)c(Cl)c3)c2cc1NC(=O)/C=C/CN(C)C [NERATINIB] , readout=Population Mitochondria Different-Phenotype (%)) returns 15

get_value(item= COc1cccc2cc(-c3nc([C@H]4CC[C@H](C(=O)O)CC4)n4ncnc(N)c34)[nH]c12 [OSI-027] , readout=Population Mitochondria Different-Phenotype (%)) returns 13

get_value(item= CN1C2CCC1CC(OC(c1ccc(F)cc1)c1ccc(F)cc1)C2.Cl (centres undefined) , readout=Population Mitochondria Different-Phenotype (%)) returns 35

get_value(item= COc1cc(N2CCN(C)CC2)ccc1Nc1ncc2c(n1)N(C)c1ccccc1C(=O)N2C , readout=Population Mitochondria Different-Phenotype (%)) returns 42

get_value(item= CCc1cccc(CC)c1NC(=O)c1nn(C)c2c1CCc1cnc(Nc3ccc(N4CCN(C)CC4)cc3OC)nc1-2 , readout=Population Mitochondria Different-Phenotype (%)) returns 69

get_value(item= Cn1nc(C(F)(F)F)cc1-c1cnc(N2CCc3cc(S(=O)(=O)Nc4c(F)cc(Cl)cc4F)cc(N4CCCC4=O)c32)nc1 [TP-020] , readout=Population Mitochondria Different-Phenotype (%)) returns 13

get_value(item= CCCn1c(=O)c2[nH]c(-c3cnn(Cc4cccc(C(F)(F)F)c4)c3)nc2n(CC)c1=O [GS 6201] , readout=Population Mitochondria Different-Phenotype (%)) returns 9

get_value(item= COc1ccc(-c2ccc3c(N4CCOCC4)nc(N4C[C@@H](C)O[C@@H](C)C4)nc3n2)cc1CO [Ku-0063794] , readout=Population Mitochondria Different-Phenotype (%)) returns 4

get_value(item= NC(=O)c1cccc(-c2cc(Nc3ccc(OC(F)(F)F)cc3)ncn2)c1 , readout=Population Mitochondria Different-Phenotype (%)) returns 10

get_value(item= Cc1ccc(C(=O)Nc2cccc(C(F)(F)F)c2)cc1Nc1nc(-c2cccnc2)nc2c1cnn2C , readout=Population Mitochondria Different-Phenotype (%)) returns 52

get_value(item= CCc1cccc(CC)c1NC(=O)c1nn(C)c2c1CCc1cnc(Nc3ccc(C(=O)NC4CCN(C)CC4)cc3OC(F)(F)F)nc1-2 , readout=Population Mitochondria Different-Phenotype (%)) returns 57
